Molecular target: HLA-DR (DRA1*01:01 / DRB1*04:07), soluble knob-into-hole Fc heterodimer (human)
Test: ELISA

{"binder": "KPVSKMRMATPLLMQALPM [human CLIP peptide, unlabelled competitor]", "units_of_measure": "nM", "Ki": 5.25}
